Hey, just so you know, these numbers are from patent US20230144436A1.

Tested on: DMPK
experiment_summary: DMPK knockdown by transfected antisense oligonucleotides in DM1 C15 myotubes at 0.5 nM and 50 nM
Format: cell-based
conditions: 50 nM oligonucleotide, 72 hours, qPCR, relative to vehicle control
Bucketed by reported Percent DMPK Reduction, buckets being class 0 = under 50%, class 1 = from 50% up to 70%, class 2 = 70% and over

INSERT INTO measurements (substance, discrete_label) VALUES
  ('283 (GCCAAAGAAGAAGGGAUGUG; chemistry not given here) [compound 283]', 'class 1'),
  ('248 (CAAACUUGCUCAGCAGUGUC; chemistry not given here) [compound 248]', 'class 1'),
  ('312 (GUCUCAGUGCAUCCAAAACG; chemistry not given here) [compound 312]', 'class 0'),
  ('326 (CAGCGCCCACCAGUCACACU; chemistry not given here) [compound 326]', 'class 1'),
  ('318 (AGGAGCAGGGAAAGCGCCUC; chemistry not given here) [compound 318]', 'class 1'),
  ('265 (GUCGGGUUUGAUGUCCCUGU; chemistry not given here) [compound 265]', 'class 1'),
  ('303 (CCGUUCCAUCUGCCCGCAGC; chemistry not given here) [compound 303]', 'class 2'),
  ('296 (AUCUCCGCCAGGUAGAAGCG; chemistry not given here) [compound 296]', 'class 1'),
  ('345 (AAGCGCCUCCGAUAGGCCAG; chemistry not given here) [compound 345]', 'class 0'),
  ('332 (AAUCUCCGCCAGGUAGAAGC; chemistry not given here) [compound 332]', 'class 1'),
  ('339 (CUCCGCCAGGUAGAAGCGCG; chemistry not given here) [compound 339]', 'class 2'),
  ('289 (AUGACAAUCUCCGCCAGGUA; chemistry not given here) [compound 289]', 'class 1'),
  ('324 (GCCUCAGCCUCUGCCGCAGG; chemistry not given here) [compound 324]', 'class 0');

---

The entries below are paired with their reported Percent DMPK Reduction.
Tested on: DMPK
experiment_summary: DMPK knockdown by transfected antisense oligonucleotides in DM1 C15 myotubes at 0.5 nM and 50 nM
Type: cell-based
conditions: 0.5 nM oligonucleotide, 72 hours, qPCR, relative to vehicle control
measurement_type: Percent DMPK Reduction (%)

INSERT INTO results (substance, measurement_type, reported) VALUES
  ('253 (UGCUCAGCAGUGUCAGCAGG; chemistry not given here) [compound 253]', 'Percent DMPK Reduction', 27.08),
  ('316 (AGCAGGAUGUUGUCGGGUUU; chemistry not given here) [compound 316]', 'Percent DMPK Reduction', 41.05),
  ('266 (AAUACUCCAUGACCAGGUAC; chemistry not given here) [compound 266]', 'Percent DMPK Reduction', 28.86),
  ('292 (GCCUCUGCCUCGCGUAGUUG; chemistry not given here) [compound 292]', 'Percent DMPK Reduction', 35.38),
  ('271 (CCCACGUAAUACUCCAUGAC; chemistry not given here) [compound 271]', 'Percent DMPK Reduction', 28.21),
  ('326 (CAGCGCCCACCAGUCACACU; chemistry not given here) [compound 326]', 'Percent DMPK Reduction', 37.28),
  ('370 (ACUUGUUCAUGAUCUUCAUG; chemistry not given here) [compound 370]', 'Percent DMPK Reduction', 25.47),
  ('246 (GGACGGCCCGGCUUGCUGCC; chemistry not given here) [compound 246]', 'Percent DMPK Reduction', 58.25),
  ('368 (CAGCAGUGUCAGCAGGUCCC; chemistry not given here) [compound 368]', 'Percent DMPK Reduction', 25.67),
  ('362 (GCUGUCCCGGAGACCAUCCC; chemistry not given here) [compound 362]', 'Percent DMPK Reduction', 22.57),
  ('281 (ACAGCGGUCCAGCAGGAUGU; chemistry not given here) [compound 281]', 'Percent DMPK Reduction', 19.94),
  ('288 (CAGGGACAGCCGCUGGAACU; chemistry not given here) [compound 288]', 'Percent DMPK Reduction', 32.09),
  ('263 (GGAUGGCCUCCAUCUCCCGG; chemistry not given here) [compound 263]', 'Percent DMPK Reduction', 24.93),
  ('336 (GAUGUUGUCGGGUUUGAUGU; chemistry not given here) [compound 336]', 'Percent DMPK Reduction', 10.06),
  ('279 (CAUCUCGGCCGGAAUCCGCU; chemistry not given here) [compound 279]', 'Percent DMPK Reduction', 20.21),
  ('317 (AUCCGCUCCUGCAACUGCCG; chemistry not given here) [compound 317]', 'Percent DMPK Reduction', 12.80),
  ('328 (CUUGCCAUAGGUCUCCGCCG; chemistry not given here) [compound 328]', 'Percent DMPK Reduction', 27.04);

---

The entries below come with measured Normalized DMPK Remaining values attached.
Test system: DMPK
experiment_summary: DMPK knockdown by transfected antisense oligonucleotides in DM1 C15 myotubes at 0.5 nM and 50 nM
Type: cell-based
conditions: 0.5 nM oligonucleotide, 72 hours, relative to vehicle control = 1.00
Procedure: Two hundred and thirty-six oligonucleotides for targeting DMPK were generated using in silico analysis. Each individual oligonucleotide was evaluated for their ability to target DMPK in cellulo at two doses—0.5 nM (low dose) and 50 nM (high dose). Briefly, DM1 C15 immortalized myoblasts were cultured in T-75 flasks until near confluency (˜80% confluent). Myoblasts were then disrupted with trypsin and seeded into 96-well microplates at a density of 50,000 cells/well. […]
measurement_type: Normalized DMPK Remaining

INSERT INTO results (substance, target_desc, reported) VALUES
  ('435 (GCCUGUCAGCGAGUCGGAGG; chemistry not given here) [compound 435]', 'DMPK', 0.89),
  ('408 (UCGGGUUUGAUGUCCCUGUG; chemistry not given here) [compound 408]', 'DMPK', 0.78),
  ('467 (AGCUCCCGCAGCGUCACCUC; chemistry not given here) [compound 467]', 'DMPK', 0.86),
  ('382 (AUGUCCCUGUGCACGUAGCC; chemistry not given here) [compound 382]', 'DMPK', 0.83),
  ('457 (GGGCCUUUUAUUCGCGAGGG; chemistry not given here) [compound 457]', 'DMPK', 0.95),
  ('462 (UCUGCCUCGCGUAGUGACU; chemistry not given here) [compound 462]', 'DMPK', 0.96),
  ('442 (AUGUUGUCGGGUUUGAUGUC; chemistry not given here) [compound 442]', 'DMPK', 0.83),
  ('459 (GCUUGCUGCCUUCCCAGGCC; chemistry not given here) [compound 459]', 'DMPK', 0.99),
  ('428 (UUGAUGUCCCUGUGCACGU; chemistry not given here) [compound 428]', 'DMPK', 0.93),
  ('418 (GUAGUUGACUGGCGAAGUUC; chemistry not given here) [compound 418]', 'DMPK', 0.93),
  ('424 (CCAUUCACCAACACGUCCCU; chemistry not given here) [compound 424]', 'DMPK', 0.61),
  ('470 (AUUUCAUAGGCGAAUACACC; chemistry not given here) [compound 470]', 'DMPK', 1.05),
  ('448 (UUGGGCAGAUGGAGGGCCUU; chemistry not given here) [compound 448]', 'DMPK', 0.81),
  ('478 (CCAGCGGCAGAGAGAGGUGC; chemistry not given here) [compound 478]', 'DMPK', 0.97),
  ('468 (CGAGAGCAGCGCAAGUGAGG; chemistry not given here) [compound 468]', 'DMPK', 1.02),
  ('434 (UUUCAUAGGCGAAUACACCC; chemistry not given here) [compound 434]', 'DMPK', 0.94),
  ('389 (CCGAGAGCAGCGCAAGUGAG; chemistry not given here) [compound 389]', 'DMPK', 0.84);

---

Attribute: Percent DMPK Reduction
Tested on: DMPK
experiment_summary: DMPK knockdown by transfected antisense oligonucleotides in DM1 C15 myotubes at 0.5 nM and 50 nM
Format: cell-based
conditions: 50 nM oligonucleotide, 72 hours
measurement_type: Percent DMPK Reduction

INSERT INTO assay_data (substance, reported) VALUES
  ('394 (GAGCCUCUGCCUCGCGUAGU; chemistry not given here) [compound 394]', '77.78%'),
  ('480 (AGGGAAAGCGCCUCCGAUAG; chemistry not given here) [compound 480]', '75.50%'),
  ('419 (UGCGGAUGGCCUCCAUCUCC; chemistry not given here) [compound 419]', '84.43%'),
  ('473 (CUUGUAGUGGACGAUCUUGC; chemistry not given here) [compound 473]', '89.16%'),
  ('441 (CAAUCUCCGCCAGGUAGAAG; chemistry not given here) [compound 441]', '49.25%'),
  ('388 (UGGAACACGGACGGCCCGGC; chemistry not given here) [compound 388]', '60.96%'),
  ('434 (UUUCAUAGGCGAAUACACCC; chemistry not given here) [compound 434]', '53.28%'),
  ('447 (CAUCCAAAACGUGGAUUGGG; chemistry not given here) [compound 447]', '77.98%');
